# target: T1, human CLL1 ECD-His (human CLL1 extracellular domain with His tag) (human, UniProt Q5QGZ9 65-265)
# T1 construct: also called antigen human CLL1 ECD-His; antigen CLL1; not shown: His tag
# T1 sequence: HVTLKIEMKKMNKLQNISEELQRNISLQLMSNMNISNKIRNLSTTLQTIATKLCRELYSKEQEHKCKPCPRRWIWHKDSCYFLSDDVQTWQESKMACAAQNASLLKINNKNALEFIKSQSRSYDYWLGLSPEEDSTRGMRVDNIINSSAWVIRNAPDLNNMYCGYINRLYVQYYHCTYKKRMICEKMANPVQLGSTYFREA
# protocolDescription: BLI (ForteBio), antibody on AHC sensor, 100 nM human CLL1 ECD-His, 1:1 model
measuredProperty: Response
API note: the answer field is a bare number with no unit suffix.

>  <binder>
chimeric antibody ch27H4 (antibody, V domains shown, also called parent antibody) VH: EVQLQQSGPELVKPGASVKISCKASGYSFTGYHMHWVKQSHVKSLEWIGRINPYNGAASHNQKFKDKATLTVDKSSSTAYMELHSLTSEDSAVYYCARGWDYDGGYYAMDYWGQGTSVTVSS VL: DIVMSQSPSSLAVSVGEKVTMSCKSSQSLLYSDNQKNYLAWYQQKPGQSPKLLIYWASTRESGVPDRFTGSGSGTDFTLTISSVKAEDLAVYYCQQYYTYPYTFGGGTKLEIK

>  <Response>
0.634

$$$$
>  <binder>
anti-human CLL-1 control antibody 1075.7 (antibody, it was captured by anti-human IgG sensors and detected with anti-human IgG-Fc, so a human Fc was present; also called ch1075.7) scFv: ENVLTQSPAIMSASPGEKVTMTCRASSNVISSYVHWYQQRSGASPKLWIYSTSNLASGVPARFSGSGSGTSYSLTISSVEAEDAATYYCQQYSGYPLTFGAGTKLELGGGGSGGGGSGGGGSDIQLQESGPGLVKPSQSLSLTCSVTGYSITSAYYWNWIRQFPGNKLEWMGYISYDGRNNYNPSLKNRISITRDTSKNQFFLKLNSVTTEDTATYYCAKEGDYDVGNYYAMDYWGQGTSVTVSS

>  <Response>
0.236

$$$$

Input chimeric antibody ch19C1 (antibody, V domains shown) VH: QVQLQQSGAELMKPGASVKISCKATGYTFSSYWIEWVKQRPGHGLEWIGEIFPGSGSIKYNEKFKGKATFTADTSSNTAYMQLSSLTSEDSAVHYCARGGTYNDYSLFDYWGQGTTLTVSS VL: QIVLTQSPAIMSASPGEKVTMTCSASSSVSYMYWYQQKPGSSPRLLIFDTSNLASGVPVRFSGSGSGTSYSLTISRMEAEDAATYYCQQWSSYPLTFGAGTKLELK . Output Response: 0.619

Input chimeric antibody ch23D7 (antibody, V domains shown) VH: QVQLQQPGSDLVRPGASVKLSCKASGYTFTRYWMHWVKQRPGHGLEWIGYIYPGSGTSNYDEKFKSKATLTVDTSSSTAYMQLSSLTSEDSAVYYCTREARYTMDYWGQGTSVTVSS VL: QIVLTQSPAIMSASPGEKVTMTCSASSSVSYIYWYQQKPGSSPGLLIYDTSNLASGVPVRFSGSGSGTSYSLTISRMEAEDAATYYCQQWSSFPPTFGAGTKLELK . Output Response: 0.654
